# Experiment notes: Oral bioavailability in rat at 10 mg/kg
# Format: ADME, organism-based
# Run parameters: in vivo
Endpoint label: bioavailability (%)
Only the number, expressed in %, is required.

Cc1csc(NS(=O)(=O)c2cc(Cl)c(NCC34CCCN3CCC4)cc2F)n1	36
CC1(C)CN2CCC[C@]2(CNc2cc(F)c(S(=O)(=O)Nc3nccs3)cc2Cl)C1	61
O=S(=O)(Nc1nccs1)c1cc(Cl)c(NCCC23CCCN2CCC3)cc1F	30
O=S(=O)(Nc1cccc(F)n1)c1cc(Cl)c(NCC23CCCN2CCC3)cc1F	26

// next item, bioavailability requested
query: Requested field: bioavailability. Item: O=S(=O)(Nc1ncc(Cl)s1)c1cc(Cl)c(NCC23CCCN2CCC3)cc1F
result: 45
